Biological target: SlyDΔIF (Thermus thermophilus, UniProt Q5SLE7)
Sequence (Q5SLE7 entry or part of it, stated change not applied): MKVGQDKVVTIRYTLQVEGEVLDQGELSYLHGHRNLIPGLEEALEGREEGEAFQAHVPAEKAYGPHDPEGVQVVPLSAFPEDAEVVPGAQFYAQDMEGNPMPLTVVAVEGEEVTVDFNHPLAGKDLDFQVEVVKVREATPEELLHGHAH
Experiment: Label-free 1H NMR lineshape prolyl isomerase activity assay with SlyDΔIF
Format: biochemical
Conditions: 1H NMR lineshape analysis, 100 µM peptide, 0 to 6 µM enzyme, 25 °C, 20 mM HEPES, 100 mM NaCl, pH 7.5; linear regression of exchange rate vs enzyme concentration; technical triplicates; error one standard deviation
Ends that are not written are not given here.
Reported kcat/KM (SlyDΔIF) values follow for various substances
Your answer should be a plain number; it is taken to be in M⁻¹ s⁻¹.

Past entries and their recorded results:
substance: H-TRYWNAKMLPFAEGA-OH [F13E]
kcat/KM (SlyDΔIF), M⁻¹ s⁻¹: 100000

substance: R2A: psWT peptide substrate with mutation R2A (TAYWNAKMLPFAFGA)
kcat/KM (SlyDΔIF), M⁻¹ s⁻¹: 1.3e+06

substance: TRAWNAKMLPFAFGA [Y3A]
kcat/KM (SlyDΔIF), M⁻¹ s⁻¹: 2.5e+06

substance: H-TRYKNAKMLPFAFGA-OH [W4K]
kcat/KM (SlyDΔIF), M⁻¹ s⁻¹: 3.5e+06

substance: TRYANAKMLPFAFGA [W4A]
kcat/KM (SlyDΔIF), M⁻¹ s⁻¹: 1.1e+06

substance: H-TRYWNAKMLPFAKGA-OH [F13K]
kcat/KM (SlyDΔIF), M⁻¹ s⁻¹: 2.3e+06

As a next step, examine the substance that follows.
So, TRYWNAKMLPFAFGA [psWT] ? Its kcat/KM (SlyDΔIF) was 2.2e+06

###

Tested on: SlyD^WT
Assay: Label-free 1H NMR lineshape prolyl isomerase activity assay with SlyD^WT
Format: biochemical, Thermus thermophilus
Settings: 1H NMR lineshape analysis, 100 µM peptide, 0 to 6 µM enzyme, 25 °C, 20 mM HEPES, 100 mM NaCl, pH 7.5; linear regression of exchange rate vs enzyme concentration; technical triplicates; error one standard deviation
Ends that are not written are not given here.
reported_endpoint: kcat/KM (SlyD^WT) (M⁻¹ s⁻¹)
Your answer should be a plain number; it is taken to be in M⁻¹ s⁻¹.

Past entries and their recorded results:
substance: H-TRYENAKMLPFAFGA-OH [W4E]
kcat/KM (SlyD^WT) [M⁻¹ s⁻¹]: 4.4e+06
--
substance: TRYANAKMLPFAFGA [W4A]
kcat/KM (SlyD^WT) [M⁻¹ s⁻¹]: 2e+06
--
substance: R2A: psWT peptide substrate with mutation R2A (TAYWNAKMLPFAFGA)
kcat/KM (SlyD^WT) [M⁻¹ s⁻¹]: 5.1e+06
--
substance: H-TRYWNAKMLPFAKGA-OH [F13K]
kcat/KM (SlyD^WT) [M⁻¹ s⁻¹]: 3.4e+06
--
substance: H-TRYKNAKMLPFAFGA-OH [W4K]
kcat/KM (SlyD^WT) [M⁻¹ s⁻¹]: 2.2e+06

So, TRYWNAKALPFAFGA [M8A] ? Its kcat/KM (SlyD^WT) was 7.7e+06

So, TRYWNAKMLPFAFGA [psWT] ? Its kcat/KM (SlyD^WT) was 4.9e+06

So, TRAWNAKMLPFAFGA [Y3A] ? Its kcat/KM (SlyD^WT) was 3.9e+06

So, H-TRYWNAKMLPFAEGA-OH [F13E] ? Its kcat/KM (SlyD^WT) was 7e+06

So, TRYWNAKMLPFAAGA [F13A] ? Its kcat/KM (SlyD^WT) was 3.1e+06
